- system_tested: Guanidinoacetate N-methyltransferase (Homo sapiens)
- procedure_text: Confirmatory Screen for Target Class Profiling of Small Molecule Inhibitors of Methyltransferases (AID 1745852); further: on the % scale 0 is the no-effect control and ±100 the full control effect
- condition_summary: MTase-Glo luminescence, SAH detection, recombinant enzyme; at 57.3 µM (top of the series) unless noted
measured_attribute: activity change, negative = inhibition (%)
# unit: % | format: bare number

Here are 4 compounds together with their reported answers.
Nc1nc(NCCNc2ncc(-n3ccnc3)c(-c3ccc(Cl)cc3Cl)n2)ccc1[N+](=O)[O-] : 0
Cc1c(C)n(Cc2ccc(-c3ccccc3C(=O)O)cc2)c2ccc(C(=O)N[C@@H](C)c3ccc([N+](=O)[O-])cc3)cc12 : -10.2
Cn1c(CNc2ccc(C(=N)N)cc2)nc2cc(C(=O)N(CCC(=O)O)c3ccccn3)ccc21 : 1.99
NC1(Cc2ccc(Cl)cc2)CCN(c2ncnc3[nH]ccc23)CC1 : 0.429

Value of measured activity change, negative = inhibition for the entry CCn1nnc2c(N3CCOCC3)nc(-c3ccc(NC(=O)Nc4ccc(C(=O)N5CCN(C)CC5)cc4)cc3)nc21 : 0

Value of measured activity change, negative = inhibition for the entry Nc1ncnc2c1c(-c1cnc3[nH]ccc3c1)nn2C1CCCC1 : 0.397

Value of measured activity change, negative = inhibition for the entry Cc1cc(Nc2cc(N3CCN(C)CC3)nc(Sc3ccc(NC(=O)C4CC4)cc3)n2)n[nH]1 : -2.28

Value of measured activity change, negative = inhibition for the entry CC1(C)CC(=O)c2c(C(F)(F)F)nn(-c3ccc(C(N)=O)c(NC4CCC(OC(=O)CN)CC4)c3)c2C1 (centres undefined) : 0

Value of measured activity change, negative = inhibition for the entry CCS(=O)(=O)c1cccc(-c2cc(C(=O)NC3CCN(C)CC3)c(C)c3[nH]c4ncc(C)cc4c23)c1 : -3.37

Value of measured activity change, negative = inhibition for the entry COc1cc2c(NC3CCN(C(C)C)CC3)nc(C3CCCCC3)nc2cc1OCCCN1CCCC1 : -6.26

Value of measured activity change, negative = inhibition for the entry N#Cc1c(O)c2c(-c3ccc(-c4ccccc4O)cc3)csc2[nH]c1=O : 0
